- Tested on: ALPK1-dependent NFκB reporter gene activation in HEK293 cells stably expressing an NF-kB reporter (G9 cells)
- experimental_details: NFκB gene reporter alkaline phosphatase assay
- Assay type: cell-based
- experimental_parameters: Homo sapiens, HEK293; read-out: NFkB assay IC50
Where a name gives a salt, the structure may show the parent alone.
quantity_name: IC50 (µM)
Answer in µM, number only, no unit symbol.

Illustrative cases are given below, each with its answer.
COc1ccc(C(C)(C)c2csc(NC(=O)NCc3ccc(N4CCC(O)CC4)cc3)n2)cc1 ... 1.35
COc1ccc(C(C)(C)c2csc(NC(=O)NCc3cc(F)c(C4CCNCC4)c(F)c3)n2)cc1 [Example A151, hydrochloride] ... 0.95
COc1ccc(C(C)(C)c2csc(NC(=O)NCCOCCN3CCC(N)C3)n2)cc1 (centres unmarked) ... 1.45
COc1ccc(C(C)(C)c2csc(NC(=O)NCCCN3CCN(C)CC3)n2)cc1 ... 1.33
CC(C)(c1ccc(Br)cc1)c1csc(NC(=O)NCc2ccc(N3CCC(N)C3)cc2)n1 (centres unmarked) ... 0.58
C#C[C@](C)(c1ccc(Br)cc1)c1csc(NC(=O)NCC(C)(C)O)n1 (stereo in doubt) ... 2.69
COc1ccc(C(C)(C)c2csc(NC(=O)NCc3ccc(N4CCNCC4)c(CO)c3)n2)cc1 ... 3.1

Consider the additional compound presented here.
IC50 lookup needed for COc1ccc(C(C)(C)c2csc(NC(=O)NCCCS(=O)(=O)N3CCNCC3)n2)cc1 , thanks. 3.01

The origin of these recorded values is patent US20240109853A1.
